- Tested on: Z-138 cells
- protocolSummary: Cell proliferation assay (IncuCyte confluence), Z-138
- Assay type: cell-based
- conditions: Homo sapiens; Z-138 non-Hodgkin lymphoma; 72 h; mean of two independent experiments ± SEM; read-out: IC50 antiproliferative activity Z-138
endpointLabel: IC50 (nM)
Write the number in nM without appending the unit.

Past entries and their recorded results:
compound	measuredOn	endpointLabel	number
O=C(/C=C\n1cnc(-c2cc(C(F)(F)F)cc(C(F)(F)F)c2)n1)NNc1cnccn1 [KPT-330, selinexor, reference compound]	Z-138 cells	IC50	400
COc1cc(OCC=C(C)C)cc(C(=O)/C=C/c2cncnc2)c1	Z-138 cells	IC50	4600
O=C(/C=C/c1ccccn1)c1ccc2ccccc2c1	Z-138 cells	IC50	2300
O=C(/C=C/c1cncnc1)c1ccc2ccccc2c1	Z-138 cells	IC50	1800

Note down IC50 recorded for O=C(/C=C/c1ccncc1)c1ccc2ccccc2c1
1100

Note down IC50 recorded for COC(=O)/C(=C\c1cncnc1)C(=O)c1cc(OC)cc(OC)c1
47600

Note down IC50 recorded for COc1cc(OC)cc(C(=O)/C=C/c2cncnc2)c1
500
